Exercise: state measured IC50 for each of the molecules provided.
molecular target: tankyrase 1 (TNKS 1) (Homo sapiens, UniProt O95271); construct: 1,024-1,327aa; made in house; host or cells: cell-free protein synthesis system; test: Tankyrase inhibitory activity test (ELISA, self-polyADP ribosylation), tankyrase 1; assay type: biochemical; conditions: ELISA, self-polyADP ribosylation; class symbols; read-out: TNKS1 (inhibitory activity against tankyrase 1, IC50 value)
Sequence (O95271 1024-1327): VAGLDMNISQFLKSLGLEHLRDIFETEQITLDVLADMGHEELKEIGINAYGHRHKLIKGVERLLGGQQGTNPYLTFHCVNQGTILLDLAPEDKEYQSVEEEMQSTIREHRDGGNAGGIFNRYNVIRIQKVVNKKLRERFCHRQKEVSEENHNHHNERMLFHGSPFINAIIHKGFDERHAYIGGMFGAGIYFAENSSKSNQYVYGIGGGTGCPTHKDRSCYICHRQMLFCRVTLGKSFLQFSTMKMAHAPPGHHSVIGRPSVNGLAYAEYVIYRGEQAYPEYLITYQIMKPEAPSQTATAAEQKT

In plain terms, `COCCN1C(=O)C2(CCN(c3nc4c(c(=O)[nH]3)CCCN4C)CC2)c2c(F)cc(OCCN(C)C)cc21` has a documented IC50 of < 20 nM

The reported value for `CN1CCCc2c1nc(N1CCC3(CC1)C(=O)N(CC(F)(F)F)c1cc(OCCN4CCCC4)cc(F)c13)[nH]c2=O` in terms of IC50 is 20 to 200 nM

Sure, the documented IC50 for `C[C@@H]1CN(c2cc(F)c3c(c2)N(C)C(=O)C32CCN(c3nc4c(c(=O)[nH]3)CCCN4C)CC2)C[C@H](C)N1` is < 20 nM

For record `CN1CCCc2c1nc(N1CCC3(CC1)C(=O)N(C)c1cc(N4CCN(C(=O)CO)CC4)cc(F)c13)[nH]c2=O` the listed IC50 is < 20 nM

Notebook: `COc1ccc(Cl)c2c1N(CCC(=O)N1CCn3c(C(F)(F)F)cnc3C1)C(=O)C21CCN(c2nc3c(c(=O)[nH]2)CCCN3C)CC1` , IC50 read as < 20 nM

So, `CC(=O)N1CCN(c2cc(F)c3c(c2)N(C)C(=O)C32CCN(c3nc4c(c(=O)[nH]3)CCCN4C)CC2)CC1` ? Its IC50 was < 20 nM

// recorded IC50 for `COc1ccc(Cl)c2c1N(CCN1CCN(C(C)=O)CC1)C(=O)C21CCN(c2nc3c(c(=O)[nH]2)CCCN3C)CC1` : 20 to 200 nM

Lookup result for `CN1CCCc2c1nc(N1CCC3(CC1)C(=O)N(C)c1cc(N4CCC(C#N)CC4)cc(F)c13)[nH]c2=O` ; measured IC50: 20 to 200 nM

IC50 in this record for `CN1CCN(CCOc2cc(F)c3c(c2)N(CC(F)(F)F)C(=O)C32CCN(c3nc4c(c(=O)[nH]3)CCCN4C)CC2)CC1` : 20 to 200 nM

GET /value?item= `COCCN1C(=O)C2(CCN(c3nc4c(c(=O)[nH]3)CCCN4C)CC2)c2c(F)cc(N3CCN(C)CC3)cc21` &field=IC50 returns 20 to 200 nM

Sure, the documented IC50 for CN1CCCc2c1nc(N1CCC3(CC1)C(=O)N(C)c1c(OC4CC5CCC(C4)N5C)ccc(Cl)c13)[nH]c2=O (stereo not shown) is < 20 nM

IC50 reading for `O=C1OC2(CCN(c3nc4c(c(=O)[nH]3)CCCN4)CC2)c2c(F)cc(N3CCOCC3)cc21` : < 20 nM

Just so you know, measured IC50 for `CN1CCCc2c1nc(N1CCC3(CC1)C(=O)N(C)c1cc(N4CCS(=O)(=O)CC4)cc(F)c13)[nH]c2=O` came out at < 20 nM

Field IC50 (entry `CN1CCCc2c1nc(N1CCC3(CC1)C(=O)N(C)c1c(OCc4nnn[nH]4)ccc(Cl)c13)[nH]c2=O` ) reads < 20 nM

Lab note: `CN1CCN(c2ccc(-c3cc(F)c4c(c3)C(=O)OC43CCN(c4nc5c(c(=O)[nH]4)CCCN5C)CC3)cc2)CC1` gave IC50 of 20 to 200 nM

IC50 in this record for `CN1CCCc2c1nc(N1CCC3(CC1)OC(=O)c1cc(N4CCN(CCO)CC4)cc(F)c13)[nH]c2=O` : < 20 nM

Item: `CN1CCCc2c1nc(N1CCC3(CC1)C(=O)N(C)c1cc(OCC(=O)NS(C)(=O)=O)cc(F)c13)[nH]c2=O` | IC50: < 20 nM

// recorded IC50 for `COCCN1CCN(c2cc(F)c3c(c2)N(C)C(=O)C32CCN(c3nc4c(c(=O)[nH]3)CCCN4C)CC2)CC1` : 20 to 200 nM

The molecule listed as `CC(C)(O)CN1C(=O)C2(CCN(c3nc4c(c(=O)[nH]3)CCCN4)CC2)c2c(F)cccc21` shows IC50 equal to 20 to 200 nM

# IC50 of `CN1CCN(c2cc(F)c3c(c2)N(CC#N)C(=O)C32CCN(c3nc4c(c(=O)[nH]3)CCCN4C)CC2)CC1` = 20 to 200 nM

# IC50 (molecule: `CN(C)CCOc1ccc(F)c2c1N(C)C(=O)C21CCN(c2nc3c(c(=O)[nH]2)CCCN3C)CC1` ) is < 20 nM

IC50 in this record for `CN1CCCc2c1nc(N1CCC3(CC1)C(=O)N(CCO)c1cc(OCC#N)cc(F)c13)[nH]c2=O` : < 20 nM

// IC50 lookup, molecule = `CN1CCCc2c1nc(N1CCC3(CC1)C(=O)N(C)c1c(OCC(=O)O)ccc(F)c13)[nH]c2=O` , result: < 20 nM

Query `CN1CCCc2c1nc(N1CCC3(CC1)C(=O)N(C)c1cc(OCS(N)(=O)=O)cc(F)c13)[nH]c2=O` yields IC50 of < 20 nM

Memo: `CN1CCCc2c1nc(N1CCC3(CC1)C(=O)N(C)c1c(OCC4CCNCC4)ccc(F)c13)[nH]c2=O` , reported IC50: < 20 nM

The value of IC50 measured for the molecule `CN1CCCc2c1nc(N1CCC3(CC1)C(=O)N(CC(C)(C)O)c1cccc(F)c13)[nH]c2=O` turned out to be < 20 nM

In plain terms, `CN1C(=O)C2(CCN(c3nc4c(c(=O)[nH]3)CCCN4)CC2)c2c(F)ccc(OCC(C)(C)O)c21` has a documented IC50 of < 20 nM

Entry `N#CCOc1cc(F)c2c(c1)N(CC(F)(F)F)C(=O)C21CCN(c2nc3c(c(=O)[nH]2)CCCN3)CC1` ; IC50 = < 20 nM
